# EXPERIMENTAL SYSTEM: MSI1 full-length (mouse, UniProt Q61474 1-362)
# Sequence (Q61474 whole entry): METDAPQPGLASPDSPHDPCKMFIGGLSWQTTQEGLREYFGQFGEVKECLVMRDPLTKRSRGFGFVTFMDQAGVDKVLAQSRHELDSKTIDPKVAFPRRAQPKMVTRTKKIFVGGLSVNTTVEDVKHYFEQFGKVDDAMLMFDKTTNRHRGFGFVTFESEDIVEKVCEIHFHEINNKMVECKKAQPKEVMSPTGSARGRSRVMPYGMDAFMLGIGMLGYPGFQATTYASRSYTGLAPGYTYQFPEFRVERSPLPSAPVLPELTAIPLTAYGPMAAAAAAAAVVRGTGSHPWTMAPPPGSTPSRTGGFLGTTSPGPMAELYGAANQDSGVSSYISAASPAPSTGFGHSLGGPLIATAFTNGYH
# ASSAY REMARKS: nsRBNS (natural sequence RNA bind-n-seq); RBNS binding buffer (assumed for nsRBNS): 25 mM Tris pH 7.5, 150 mM KCl, 3 mM MgCl2, 0.01% Triton X-100, 500 ug/ml BSA, 20 U/ml SUPERase-In, 4 C; UNK is unkempt and MSI1 is Musashi-1; names of the RNAs are library labels; protein concentration not given here; high values mean tight binding
The full ranking holds about 5,800 sequences; the median of “enrichment r” is about 0.54, and the highest 2% start at about 16. For the sample, the highest values were picked, then their nearest neighbours and some sequences at random.
Threshold check on binding signal: at or above 0.7 enrichment R gives t, strictly below gives f.

BINDER	CLASS
chr1:62864655:62864756:+|3pUTR|ENSG00000125703|unk|FALSE|unique (ssRNA) RNA: GGGAGUUCUACAGUCCGACGAUCUUUGUUAACUGUGAUAUGCAUACACUUAUAUAAGCAGAAUUAUGAGUUAAAGUAAUACUUAGCAAUAUGAUUUUAUAAUGGCUCCUCAUUAUGCUUGCUGUUGAACCUUUUAUGAGGAGUCAACAGAGGAUUGAGCAUCA	t
chr1:234405902:234406099:-|CDS|ENSG00000059588|control|control|control (ssRNA) RNA: GGGAGUUCUACAGUCCGACGAUCCCUUAUAGUUGUGCUGCAGUGGUGUUUCAAUCACAAUUUUAGUGUUCGACUGUAUGCUUUAGUUGCUCUUAAGAAACUCUGGACUGUGUGUAAAGUGUUAAGUGUUGAAGAAUUUGAUGCCAACAGAGGAUUGAGCAUCA	t
chr19:38730201:38730298:+|3pUTR|ENSG00000130402|msi1_unk|FALSE|overlapping (ssRNA) RNA: GGGAGUUCUACAGUCCGACGAUCCAGAGAAUUACUAUUUACUUUAUUAACUUACGGAUUUAUUAUAUAAAUAUAUAUUCACCUAGCAACAUAUCUCUGCCGUCUCUCCUGCUCUCAUAAUGAAGACAUAGCCGAUUCUCUGCCCAACAGAGGAUUGAGCAUCA	t
ENSG00000070961:be:win_4551|3pUTR|ENSG00000070961|bound_else_gene|NA|bound_elsewhere_windowed (ssRNA) RNA: GGGAGUUCUACAGUCCGACGAUCAAUGAAAGAUGCUUGAAAUGCUUUUGUUAUUUCAGGCAAAUCAAAUUAAAUCAGACUAUCAAACUACAAGAGAACCUUAGUCUUUUUUGUUUUUGUCUAAACAUGUUAGUUUAGUGAUGUCAACAGAGGAUUGAGCAUCA	t
chr19:38730201:38730298:+|3pUTR|ENSG00000130402|msi1_unk|total|mutant (ssRNA) RNA: GGGAGUUCUACAGUCCGACGAUCCAGAGAAUUACUAUUUACUUUAUUAACUUACGGAUUUAUUAUAUAAAUAUAUAUUCACCCCGCAACAUAUCUCUGCCGUCUCUCCUGCUCUCAUAAUGAAGACACCGCCGAUUCUCUGCCCAACAGAGGAUUGAGCAUCA	t
ENSG00000120802:stop:overlap|stop_codon|ENSG00000120802|stop_codon|NA|stop_codon (ssRNA) RNA: GGGAGUUCUACAGUCCGACGAUCGUGGAACAUUAUUUGGAGGAGAAGUAUGCAAAGUAAUUAAAAAGCGUGGAAAUAAACACUAGUAAAAUUAAGGACAAAAAGACAUCUAUCUUAUCUUUCAGGUACUUUAUGCCAACAUUUCAACAGAGGAUUGAGCAUCA	t

input: Could you tell me if the measured binding signal of chr4:56461171:56461272:+|3pUTR|ENSG00000128050|msi1|FALSE|bound_elsewhere (ssRNA) RNA: GGGAGUUCUACAGUCCGACGAUCCUUCUGUAACCACAGUGACUACAAGUAGUUCUUUCUCUAUUGAAUUAUUAGGUCCAGAAUAGAAGAUGUCAUUGUACACUUUAUUUCCCUCACACUGUGUUAUGCUCUGAUGUGCUAUGCCAACAGAGGAUUGAGCAUCA reaches 0.7 enrichment R or more?
output: t

input: hey, is binding signal for this one >= 0.7 enrichment R? chr10:73251842:73251943:-|CDS|ENSG00000182180|msi1|FALSE|unique (ssRNA) RNA: GGGAGUUCUACAGUCCGACGAUCUCGGCCGUUCUACCGCAUUGUGGCUGCUCACAACAAGUGUCCCAGGGAUGGCCGUUUCGUAGAGCAGCUGGGCUCCUAUGAUCCAUUGCCCAACAGUCAUGGAGAAAAACUCGUUGCCCUCAACAGAGGAUUGAGCAUCA
output: f

input: Is binding signal at least 0.7 enrichment R? Consider ENSG00000070961:be:win_601|CDS|ENSG00000070961|bound_else_gene|NA|bound_elsewhere_windowed (ssRNA) RNA: GGGAGUUCUACAGUCCGACGAUCCAGGUCAUUCAGAUACCUGUAGCUGACAUUACUGUUGGAGAUAUUGCUCAAGUGAAAUAUGGUGAUCUUCUUCCAGCUGACGGCAUACUUAUUCAAGGCAACGAUCUUAAAAUUGAUGAACAACAGAGGAUUGAGCAUCA
output: f

input: Check this binder for binding signal at or above 0.7 enrichment R: chr2:151248206:151248307:-|3pUTR|ENSG00000184898|msi1|FALSE|unique (ssRNA) RNA: GGGAGUUCUACAGUCCGACGAUCUUUUUUUAAAGCAAAGAUUAAAUUCCCAUGUAAAACCUUCCUCCCUAUACAAAAAAGAAUAGCAGCAUUUUUAUCUUCAAUGACAAAGAAUUGAGUCCAAGAAAAUACUGUAUAAACCUUCAACAGAGGAUUGAGCAUCA
output: f

input: Form field: binding signal at least 0.7 enrichment R? Entry: chr13:20822168:20822271:-|CDS|ENSG00000132953|unk|FALSE|unique (ssRNA) RNA: GGGAGUUCUACAGUCCGACGAUCUCGAAAAAUCAGAGAAGAUUCAGAUAUGGCACAAGAUUCUCUGCAGUGCCUUGCCCAGUUAGCUUCUCUUCAUGGACCCAUCUUCCCAGAUGAAGGAUCACAAGUUGAUUAUCUAGCACACAACAGAGGAUUGAGCAUCA
output: f

input: For this binder, is measured binding signal 0.7 enrichment R or higher? chr1:173734013:173734119:+|CDS|ENSG00000076321|unk|FALSE|unique (ssRNA) RNA: GGGAGUUCUACAGUCCGACGAUCCAUUGACGAGAGGGCUAUGGAAUUACUGAUUGACUUUGCGUAUACCUCCCAGAUAACAGUAGAAGAGGGCAAUGUUCAGACUCUUCUGCCAGCUGCUUGCCUCCUCCAGCUGGCAGAAAUCAACAGAGGAUUGAGCAUCA
output: t
